The reported numbers originate from ChEMBL document CHEMBL3286310.

zone of inhibition at 100 µg/disc: recorded values
# Tested on: Escherichia coli
# test.method.notes: Antimicrobial activity against Escherichia coli ATCC 25922 at 100 ug/disc after 24 hrs by agar cup plate method
# Format: functional
# assay.context: ATCC 25922, 24 h, read-out: DIZ

{"molecule": "CCOP(=O)(OCC)C(O)C1=C(N(C)C)C(=O)N(c2ccc(F)cc2)C1=O (stereo not drawn)", "zone of inhibition at 100 µg/disc / mm": 15.8}
{"molecule": "CCOP(=O)(OCC)C(O)C1=C(N(C)C)C(=O)N(c2ccccc2Cl)C1=O (stereo not drawn)", "zone of inhibition at 100 µg/disc / mm": 15.4}
{"molecule": "CCOP(=O)(OCC)C(O)C1=C(N(C)C)C(=O)N(c2ccc(Cl)cc2)C1=O (stereo not drawn)", "zone of inhibition at 100 µg/disc / mm": 13.4}
{"molecule": "CCOP(=O)(OCC)C(O)C1=C(N(C)C)C(=O)N(c2cccc(C(F)(F)F)c2)C1=O (stereo not drawn)", "zone of inhibition at 100 µg/disc / mm": 15.7}
{"molecule": "CCOP(=O)(OCC)C(O)C1=C(N(C)C)C(=O)N(c2ccc(Br)cc2)C1=O (stereo not drawn)", "zone of inhibition at 100 µg/disc / mm": 13.1}
{"molecule": "CCOP(=O)(OCC)C(O)C1=C(N(C)C)C(=O)N(c2cccc(Cl)c2)C1=O (stereo not drawn)", "zone of inhibition at 100 µg/disc / mm": 13.5}
{"molecule": "CCOP(=O)(OCC)C(O)C1=C(N(C)C)C(=O)N(c2ccccc2)C1=O (stereo not drawn)", "zone of inhibition at 100 µg/disc / mm": 13.2}
{"molecule": "CN[C@@H]1[C@H](O[C@H]2[C@H](O[C@H]3[C@H](O)[C@@H](O)[C@H](N=C(N)N)[C@@H](O)[C@@H]3N=C(N)N)O[C@@H](C)[C@]2(O)C=O)O[C@@H](CO)[C@H](O)[C@H]1O", "zone of inhibition at 100 µg/disc / mm": 16.4}
